Entry source: ChEMBL document CHEMBL1131281

- system: Squalene synthase (Rattus norvegicus)
- Sequence (Q02769 whole entry): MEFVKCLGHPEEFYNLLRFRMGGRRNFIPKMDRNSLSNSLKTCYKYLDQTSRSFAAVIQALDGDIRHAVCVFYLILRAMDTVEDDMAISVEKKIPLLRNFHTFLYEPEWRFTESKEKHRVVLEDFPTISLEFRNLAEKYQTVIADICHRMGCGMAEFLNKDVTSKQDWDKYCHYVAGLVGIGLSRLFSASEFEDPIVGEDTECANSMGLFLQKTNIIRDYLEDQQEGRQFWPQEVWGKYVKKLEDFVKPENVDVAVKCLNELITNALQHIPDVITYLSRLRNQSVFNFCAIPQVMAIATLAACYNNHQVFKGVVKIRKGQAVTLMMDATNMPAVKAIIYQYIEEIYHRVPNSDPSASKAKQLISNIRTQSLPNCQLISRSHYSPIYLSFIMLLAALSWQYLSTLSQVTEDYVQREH
- measurement_protocol: Compound was tested for inhibition of squalene synthase from rat liver microsomes using [3H]farnesyl pyrophosphate (FPP) as substrate
Reported values of log10 of IC50 for individual entries
reported_metric: log10 of IC50 (log10 of the value in nM)

compound_structure_string	reported_metric	value_observed
CCCN(Cc1ccc(Oc2ccccc2)cc1)C(=O)[C@H]1C[C@H](C(=O)N(CCC)Cc2ccc(Oc3ccccc3)cc2)[C@H](C(=O)O)[C@H]1C(=O)O	log10 of IC50	2.23
CCCN(Cc1ccc(Oc2ccccc2)cc1)C(=O)[C@@H]1[C@H](C(=O)N(CCC)Cc2ccc(Oc3ccccc3)cc2)[C@H](C(=O)O)C[C@@H]1C(=O)O	log10 of IC50	3.96
CCCN(Cc1ccc(Oc2ccccc2)cc1)C(=O)[C@H]1C[C@@H](C(=O)N(CCC)Cc2ccc(Oc3ccccc3)cc2)[C@](CC(=O)O)(C(=O)O)[C@H]1C(=O)O	log10 of IC50	2.38
CCCN(Cc1ccc(Oc2ccccc2)cc1)C(=O)[C@H]1C[C@@H](C(=O)N(CCC)Cc2ccc(Oc3ccccc3)cc2)[C@H](C(=O)O)[C@H]1C(=O)O	log10 of IC50	2.76
CCCN(Cc1ccc(Oc2ccccc2)cc1)C(=O)[C@H]1[C@@H](C(=O)O)[C@H](C(=O)O)O[C@@H]1C(=O)N(CCC)Cc1ccc(Oc2ccccc2)cc1	log10 of IC50	3.48
CCCN(Cc1ccc(Oc2ccccc2)cc1)C(=O)[C@H]1[C@@H](C(=O)O)[C@@H](C(=O)N(CCC)Cc2ccc(Oc3ccccc3)cc2)C[C@H]1C(=O)O	log10 of IC50	3.46

###

Reported values of inhibition for individual entries
- system: Squalene synthase (Rattus norvegicus) (UniProt Q02769)
- Sequence (Q02769 whole entry): as above
- measurement_protocol: Percent inhibition of squalene synthase from rat liver microsomes using [3H]farnesyl pyrophosphate (FPP) as substrate at 1 uM concentration

compound_structure_string	inhibition (%)
CCCN(Cc1ccc(Oc2ccccc2)cc1)C(=O)[C@@H]1[C@@H](C(=O)N(CCC)Cc2ccc(Oc3ccccc3)cc2)[C@@H](C(=O)O)C[C@@H]1C(=O)O	24
CCCN(Cc1ccc(Oc2ccccc2)cc1)C(=O)[C@H]1C[C@@H](C(=O)N(CCC)Cc2ccc(Oc3ccccc3)cc2)[C@@](CC(=O)O)(C(=O)O)[C@H]1C(=O)O	25
CCCN(Cc1ccc(Oc2ccccc2)cc1)C(=O)[C@@H]1[C@@H](C(=O)N(CCC)Cc2ccc(Oc3ccccc3)cc2)[C@H](C(=O)O)C[C@@H]1C(=O)O	45
CCCN(Cc1ccc(Oc2ccccc2)cc1)C(=O)[C@H]1C[C@@H](C(=O)N(CCC)Cc2ccc(Oc3ccccc3)cc2)[C@@](CC(=O)O)(C(=O)O)C1	44
CCCN(Cc1ccc(Oc2ccccc2)cc1)C(=O)[C@H]1C[C@@H](C(=O)N(CCC)Cc2ccc(Oc3ccccc3)cc2)[C@@](CC(=O)O)(C(=O)O)[C@@H]1C(=O)O	38
